System: Plasmodium berghei
Test: Luciferase/luciferin-expressing antifolate-resistant parasites were used to infect a culture of HepG2 cells that were pre-incubated with compounds. Infected hepatocytes emit light due to the luciferase reaction. Assay results are presented as the percent inhibition of light emission compared to control. […]
Format: functional
Conditions: sporozoite, FFLUC_HILL_SLOPE 1.01, FFLUC_R_SQUARED 0.213, PBLUC_HILL_SLOPE 39.2, PBLUC_R_SQUARED 0.71, read-out: LUCIFERASE INFECTION ASSAY - IC50
pIC50: −log10 of the molar value.
readout label: pIC50

In [3]: df
Out[3]:
                               smiles_entry  readout_label  recorded_result
0  Oc1cccc(-c2cnc3cnc(-c4ccc(CNc5ccccc5)cc4)cn23)c1          pIC50             5.56

----------
Tested on: Plasmodium berghei
Assay: Luciferase/luciferin-expressing antifolate-resistant parasites were used to infect a culture of HepG2 cells that were pre-incubated with compounds. Infected hepatocytes emit light due to the luciferase reaction. Assay results are presented as the percent inhibition of light emission compared to control. […]
Format: functional
Conditions: sporozoite, PBLUC_HILL_SLOPE 2.13, PBLUC_R_SQUARED 0.772, read-out: LUCIFERASE INFECTION ASSAY - IC50
pIC50: −log10 of the molar value.
readout label: pIC50

In [3]: df
Out[3]:
                               smiles_entry  recorded_result
0  CC(=O)N1CCc2cc(NC(=O)c3cc(C)n(C4CCCCC4)c3C)ccc21             6.90

----------
Test system: Plasmodium berghei
Assay: Luciferase/luciferin-expressing antifolate-resistant parasites were used to infect a culture of HepG2 cells that were pre-incubated with compounds. Infected hepatocytes emit light due to the luciferase reaction. Assay results are presented as the percent inhibition of light emission compared to control. […]
Type: functional
Settings: sporozoite, PBLUC_HILL_SLOPE 2.95, PBLUC_R_SQUARED 0.129, read-out: LUCIFERASE INFECTION ASSAY - IC50
readout label: IC50 (µM)

>>> print(df.to_string())
                               smiles_entry  readout_label  result_unit  recorded_result
0  Cc1c(-c2ccccc2)sc2ncnc(NCC(=O)N3CCCC3)c12           IC50           µM             5.82

----------
System: Plasmodium berghei
Experiment: Luciferase/luciferin-expressing antifolate-resistant parasites were used to infect a culture of HepG2 cells that were pre-incubated with compounds. Infected hepatocytes emit light due to the luciferase reaction. Assay results are presented as the percent inhibition of light emission compared to control. […]
Format: functional
Details: sporozoite, FFLUC_HILL_SLOPE 4.43, FFLUC_R_SQUARED 0.284, HEPG2TOX_HILL_SLOPE 6.55, HEPG2TOX_R_SQUARED 0.133, PBLUC_HILL_SLOPE 3.84, PBLUC_R_SQUARED 0.345, read-out: LUCIFERASE INFECTION ASSAY - IC50
readout label: IC50 (µM)

>>> df
                                   compound        assay_system  recorded_result
0  CCn1cc(C(=O)OCC(=O)N2N=C3/C(=C/c4ccccc4)CCCC3C2c2ccccc2)c(=O)c2ccc(C)nc21 (stereo unspecified)  Plasmodium berghei             5.34

----------
Tested on: Plasmodium berghei
Test: Luciferase/luciferin-expressing antifolate-resistant parasites were used to infect a culture of HepG2 cells that were pre-incubated with compounds. Infected hepatocytes emit light due to the luciferase reaction. Assay results are presented as the percent inhibition of light emission compared to control. […]
Assay type: functional
Conditions: sporozoite, HEPG2TOX_HILL_SLOPE 2.28, HEPG2TOX_R_SQUARED 0.978, PBLUC_HILL_SLOPE 13.8, PBLUC_R_SQUARED 0.454, read-out: LUCIFERASE INFECTION ASSAY - IC50
readout label: IC50 (µM)

>>> df
                            smiles_entry  readout_label  recorded_result
0  O=C1C=C/C(=N\Nc2ccc3ncsc3c2)c2cccnc21           IC50             8.95

----------
Test system: Plasmodium berghei
Assay: Luciferase/luciferin-expressing antifolate-resistant parasites were used to infect a culture of HepG2 cells that were pre-incubated with compounds. Infected hepatocytes emit light due to the luciferase reaction. Assay results are presented as the percent inhibition of light emission compared to control. […]
Type: functional
Conditions: sporozoite, HEPG2TOX_HILL_SLOPE 6.73, HEPG2TOX_R_SQUARED 0.639, PBLUC_HILL_SLOPE 3.67, PBLUC_R_SQUARED 0.234, read-out: LUCIFERASE INFECTION ASSAY - IC50
pIC50: −log10 of the molar value.
readout label: pIC50

                               smiles_entry  recorded_result
0  O=c1c(Cl)cc(C(F)(F)F)cn1Cc1csc(Nc2ccccc2)n1             5.05

----------
Test system: Plasmodium berghei
Assay: Luciferase/luciferin-expressing antifolate-resistant parasites were used to infect a culture of HepG2 cells that were pre-incubated with compounds. Infected hepatocytes emit light due to the luciferase reaction. Assay results are presented as the percent inhibition of light emission compared to control. […]
Assay type: functional
Settings: sporozoite, PBLUC_HILL_SLOPE 2.85, PBLUC_R_SQUARED 0.222, read-out: LUCIFERASE INFECTION ASSAY - IC50
readout label: IC50 (µM)

>>> df
                               smiles_entry  recorded_result
0  FC(F)(F)Oc1cccc(-c2ccc3ncc(-c4cccs4)n3n2)c1             9.07

----------
System: Plasmodium berghei
Test: Luciferase/luciferin-expressing antifolate-resistant parasites were used to infect a culture of HepG2 cells that were pre-incubated with compounds. Infected hepatocytes emit light due to the luciferase reaction. Assay results are presented as the percent inhibition of light emission compared to control. […]
Type: functional
Conditions: sporozoite, PBLUC_HILL_SLOPE 1.37, PBLUC_R_SQUARED 0.781, read-out: LUCIFERASE INFECTION ASSAY - IC50
pIC50: −log10 of the molar value.
readout label: pIC50

>>> print(df.to_string())
                               smiles_entry  recorded_result
0  OC(c1cn2cc(-c3ccccc3)nc2s1)(C(F)(F)F)C(F)(F)F             6.46

----------
Test system: Plasmodium berghei
Experiment: Luciferase/luciferin-expressing antifolate-resistant parasites were used to infect a culture of HepG2 cells that were pre-incubated with compounds. Infected hepatocytes emit light due to the luciferase reaction. Assay results are presented as the percent inhibition of light emission compared to control. […]
Type: functional
Settings: sporozoite, PBLUC_HILL_SLOPE 2.43, PBLUC_R_SQUARED 0.406, read-out: LUCIFERASE INFECTION ASSAY - IC50
readout label: IC50

>>> df
                               smiles_entry  recorded_result
0  CCOc1ccc(NC(=O)c2ccc(F)cc2)cc1S(=O)(=O)N(C)C          8.56 µM

----------
System: Plasmodium berghei
Assay: Luciferase/luciferin-expressing antifolate-resistant parasites were used to infect a culture of HepG2 cells that were pre-incubated with compounds. Infected hepatocytes emit light due to the luciferase reaction. Assay results are presented as the percent inhibition of light emission compared to control. […]
Assay type: functional
Details: sporozoite, HEPG2TOX_HILL_SLOPE 17.1, HEPG2TOX_R_SQUARED 0.93, PBLUC_HILL_SLOPE 0.895, PBLUC_R_SQUARED 0.745, read-out: LUCIFERASE INFECTION ASSAY - IC50
readout label: IC50 (nM)

>>> print(df.to_string())
                                   compound  recorded_result
0  COc1cccc(Nc2nc(-c3ccc(CCC(C)NC(C)=O)cc3)cs2)c1 (stereo unspecified)              734

----------
System: Plasmodium berghei
Assay: Luciferase/luciferin-expressing antifolate-resistant parasites were used to infect a culture of HepG2 cells that were pre-incubated with compounds. Infected hepatocytes emit light due to the luciferase reaction. Assay results are presented as the percent inhibition of light emission compared to control. […]
Format: functional
Details: sporozoite, FFLUC_HILL_SLOPE 13.6, FFLUC_R_SQUARED 0.607, PBLUC_HILL_SLOPE 3.72, PBLUC_R_SQUARED 0.631, read-out: LUCIFERASE INFECTION ASSAY - IC50
readout label: IC50 (µM)

>>> df
                                   molecule  recorded_result
0  Cc1ccc(CN2C(=O)C(O)(c3c[nH]c4ccccc34)c3ccccc32)c(C)c1 (stereo unspecified)             3.35

Cited source for all entries: ChEMBL document CHEMBL4483862
